Target Of Assay: T1, human recombinant GIP receptor (human, UniProt P48546 22-466)
T1 construct: whole, on cells; Assayed as washed membrane preparations of CHO-K1 clonal cells expressing the receptor; also called hGIP receptor
T1 sequence (looked up): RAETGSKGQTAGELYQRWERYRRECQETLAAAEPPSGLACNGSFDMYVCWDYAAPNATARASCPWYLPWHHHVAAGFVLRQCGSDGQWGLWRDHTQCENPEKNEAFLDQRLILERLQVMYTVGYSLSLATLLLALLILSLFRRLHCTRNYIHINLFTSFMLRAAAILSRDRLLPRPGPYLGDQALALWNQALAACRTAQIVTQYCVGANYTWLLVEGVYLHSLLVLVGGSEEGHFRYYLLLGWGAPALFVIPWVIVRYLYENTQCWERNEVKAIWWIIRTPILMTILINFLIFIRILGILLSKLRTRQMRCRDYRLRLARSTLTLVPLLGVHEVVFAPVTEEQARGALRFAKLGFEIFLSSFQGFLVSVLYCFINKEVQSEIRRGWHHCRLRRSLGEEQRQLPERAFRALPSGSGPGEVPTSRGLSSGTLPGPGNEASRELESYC
Experiment Description: displacement of [125I]GIP from membranes of CHO-K1 cells expressing human recombinant GIP receptor
Non-standard residues stand in square brackets, D forms with d. No end group written: not given here. *: point of attachment. Myristoyl = CCCCCCCCCCCCCC(=O)*; Ac6c = NC1(C(=O)O)CCCCC1; Nle = CCCC[C@H](N)C(=O)O; Orn = NCCC[C@H](N)C(=O)O; Ac5c = NC1(C(=O)O)CCCC1; Aib = CC(C)(N)C(=O)O
Recorded Metric: log10(Ki) (log10 of the value in nM)
For clarity, the numbers are log10 values of Ki expressed in nM.

Answered cases to consult:
Binder: YAEGTFISDYSIXMDKIHQQDFVNWLLAQKGKKNDWKHNXTQ (Aib at 13; A5c at 40; C-terminal free acid, Synthetic analogue of human GIP) [(Aib^13, A5c^40)hGIP(1-42)-OH]
Recorded Metric: log10(Ki)
Reported Measurement: 0.76
//
Binder: YAEGTF[Ac6c]SDYSIAMDKIHQQDFVNWLLAQKGKKN[Orn](Myristoyl)WKHNITQ-OH (Synthetic analogue of human GIP) [[A6c^7, Orn^35(N-C(O)-(CH2)12-CH3)]hGIP(1-42)-OH]
Recorded Metric: log10(Ki)
Reported Measurement: 1.01
//
Binder: YAEGTFISDYXIAMDKIHQQDFVNWLLAQKGKKNDWKHNITQK (A5c at 11; Lys(N-C(O)-(CH2)14-CH3) at 43; C-terminal free acid, Synthetic acylated analogue of human GIP) [[A5c^11, Lys^43(N-C(O)-(CH2)14-CH3)]hGIP(1-43)-OH]
Recorded Metric: log10(Ki)
Reported Measurement: 0.10
//
Binder: YAEGTFISDYXIAMDKIHQQDFVNWLLAQKGKKNDWKHNITQK (A5c at 11; Lys(N-C(O)-(CH2)10-CH3) at 43; C-terminal free acid, Synthetic acylated analogue of human GIP) [[A5c^11, Lys^43(N-C(O)-(CH2)10-CH3)]hGIP(1-43)-OH]
Recorded Metric: log10(Ki)
Reported Measurement: -0.08
//
Binder: YAEGTF[Ac6c]SDYSIA[Nle]DKIHQQDFVNWLLAQKGKKNDWKHNI[Ac6c]Q-OH (Synthetic analogue of human GIP) [(A6c^7, 41, Nle^14)hGIP(1-42)-OH]
Recorded Metric: log10(Ki)
Reported Measurement: 1.42

Prompt: Field request: log10(Ki) | item: YAEGTFISDYSI[Aib][Nle]DKIHQQDFVNWLLAQKGKKNDWKHN[Ac5c]TQ-OH (Synthetic analogue of human GIP) [(Aib^13, Nle^14, A5c^40)hGIP(1-42)-OH]
Response: -0.64

Prompt: Field request: log10(Ki) | item: YAEGTFISDYXIAMDKIHQQDFVNWLLAQKGXKNDWKHNITQH (A5c at 11; Orn(N-C(O)-(CH2)10-CH3) at 32; C-terminal free acid, Synthetic acylated analogue of human GIP with an added His at position 43) [[A5c^11, Orn^32(N-C(O)-(CH2)10-CH3), His^43]hGIP(1-43)-OH]
Response: 0.72

Prompt: Field request: log10(Ki) | item: YAEGTFISDYXIAMDKIHQQDFVNWLLAQKH (A5c at 11; C-terminal amide, Synthetic truncated analogue of human GIP with His at position 31) [(A5c^11, His^31)hGIP(1-31)-NH2]
Response: -0.36

Prompt: Field request: log10(Ki) | item: YAEGTFISDYXIAXDKIHQQDFVNWLLAQKGKKNDWKHNITQH (A5c at 11 and 14; C-terminal free acid, Synthetic analogue of human GIP with an added His at position 43) [(A5c^11, 14, His^43)hGIP(1-43)-OH]
Response: -0.23

Prompt: Field request: log10(Ki) | item: YAEGTFISDYXIAMDKIHQQDFVNWLLAQKGKKNDWKHNXTQ (A5c at 11 and 40; C-terminal free acid, Synthetic analogue of human GIP) [(A5c^11, 40)hGIP(1-42)-OH]
Response: -0.21

Prompt: Field request: log10(Ki) | item: YAEGTFISDYXIAMDKIHQQDFVNWLLAQKGKKNDWKHNIXQC (A5c at 11 and 41; Cys(succinimide-N-20K PEG) at 43; C-terminal amide, Synthetic PEGylated analogue of human GIP) [[A5c^11,41, Cys^43(succinimide-N-20K PEG)]hGIP(1-43)-NH2]
Response: -0.15

Prompt: Field request: log10(Ki) | item: YAEGTFISDYXIAMDKIHQQDFVNWLLAQKGXKNDWKHNITQH (A5c at 11; Orn(N-C(O)-(CH2)14-CH3) at 32; C-terminal free acid, Synthetic acylated analogue of human GIP) [[A5c^11, Orn^32(N-C(O)-(CH2)14-CH3), His^43]hGIP(1-43)-OH]
Response: 1.62
